- Assay details: viability loss in pontine glioma line – cell-based, SU-DIPG-XXV, MIPE5.0, CellTiter-Glo, qHTS, dose response (AID 1347065);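 note: cells exposed to compound for 48 hours before ATP readout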
- Experimental parameters: CellTiter-Glo ATP luminescence
Results filed as inconclusive are left out. The source made the active and inactive calls. No cut-off is given here; in the data, nearly all actives have AC50 up to about 26 µM.
Pick one: T (active), F (inactive)

Before answering, review these 5 worked examples.
COc1cc2nccc(Oc3ccc(NC(=O)NC4CC4)c(Cl)c3)c2cc1C(N)=O ... T
N#Cc1ccc(NC(=O)Nc2ccccc2Br)c2n[nH]nc12 ... F
Cc1cc(Oc2ccc3nc(COc4ccc(CC5SC(=O)NC5=O)cc4)n(C)c3c2)cc(C)c1N (stereo not given) ... F
COc1ccc2[nH]c3c(c2c1)CCN[C@]31CS[C@@H]2c3c(OC(C)=O)c(C)c4c(c3[C@H](COC1=O)N1[C@@H]2[C@H]2c3c(cc(C)c(OC)c3O)C[C@@H]([C@@H]1O)N2C)OCO4 ... T
O=C(NCc1ccccc1)[C@H](Cc1ccccc1)NC(=O)[C@H]1O[C@@H]1C(=O)NCCc1ccc(O)cc1 ... F

Asked: Please indicate how the test categorized Cn1cc(-c2ccc3ncc(Cc4ccc5ncccc5c4)n3n2)cn1 .
Given back: F

Asked: Please indicate how the test categorized O=C(CCCCCCC(=O)Nc1cccnc1)NO .
Given back: T

Asked: Please indicate how the test categorized CC(Nc1ncnc2nc[nH]c12)c1cc2cccc(Cl)c2c(=O)n1-c1ccccc1 (stereo not given) .
Given back: T

Asked: Please indicate how the test categorized CCCCOc1nc(N)c2c(n1)N(Cc1cccc(CN3CCCC3)c1)CC(=O)N2 .
Given back: F

Asked: Please indicate how the test categorized CC1(C)CC(=O)c2c(C(F)(F)F)nn(-c3ccc(C(N)=O)c(NC4CCC(OC(=O)CN)CC4)c3)c2C1 (stereo not given) .
Given back: T

Asked: Please indicate how the test categorized CN1CCN(c2cc(C(=O)Nc3ccc4c(c3)-c3c(c(C(N)=O)nn3-c3ccc(F)cc3)CC4)c(Cl)cn2)CC1 .
Given back: T

Asked: Please indicate how the test categorized CN(C)CC(C)(C)CNc1nn2c(-c3ccccc3)nnc2cc1C1CCC1 .
Given back: F

Asked: Please indicate how the test categorized Cc1[nH]nc2ccc(-c3cncc(OC[C@@H](N)Cc4ccccc4)c3)cc12 .
Given back: T

Asked: Please indicate how the test categorized O=C1CC(c2c[nH]c3ccc(F)cc23)C(=O)N1 (stereo not given) .
Given back: F

Asked: Please indicate how the test categorized OCCCNc1cc(-c2ccnc(Nc3cccc(Cl)c3)n2)ccn1 .
Given back: T

Asked: Please indicate how the test categorized CC(C)Nc1cc(C(F)(F)F)cc2nc(NC(=O)c3cccnc3)nn12 .
Given back: F

Asked: Please indicate how the test categorized O=C(NOCCO)c1ccc2cncn2c1Nc1ccc(I)cc1F .
Given back: T

* * *

- Assay details: growth inhibition of DIPG cells – cell-based, MIPE5.0 library, qHTS (AID 1347068);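 for IC50: cells exposed to compound for 48 hours before viability readout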
- Experimental parameters: SU-DIPG-XXV viability
Inconclusive results are not listed. Activity calls are given as the source filed them. The limit is not given here; nearly all actives have IC50 up to about 30 µM.
Pick one: active, inactive

Before answering, review these 4 worked examples.
C=C[C@H]1CN2CCC1C[C@@H]2C(O)c1ccnc2ccc(OC)cc12 (stereo not given in full) ... inactive
OCCn1cc(-c2ccc3c(c2)CC/C3=N\O)c(-c2ccncc2)n1 ... inactive
COc1cccc(-c2c(C)n(Cc3c(F)cccc3C(F)(F)F)c(=O)n(C[C@H](NCCCC(=O)O)c3ccccc3)c2=O)c1F ... inactive
Cc1cc(Nc2cc(NC(=O)c3c(Cl)cccc3Cl)ccn2)nc(N)n1 ... active

Asked: Please indicate how the test categorized Clc1cccc(-c2ccc(-c3nnc(CCCc4ccc5cccnc5n4)o3)cc2)c1 .
Given back: inactive

* * *

- Assay details: viability loss with induced miR-34 in A549 – imaging, A549 dox-inducible miR-34, nuclei and caspase counts, primary screen (AID 1347080)
- Experimental parameters: A549 miR-34 inducible, Hoechst nuclei count, 48 h; hits give low values; cell number ratio, induced over uninduced
Items are presented alongside their recorded fold change.
// return a plain number; no unit text

# annotated cases, reported fold change shown
NCCCCCc1cnc[nH]1 ... 0.92
CC(C)c1cc2c(c(O)c1O)C13CCCC(C)(C)C1CC2OC3=O (stereo not given) ... 0.942
NC(C(=O)O)c1ccc(C(=O)O)c(C(=O)O)c1 (stereo not given) ... 0.922

Asked: Give the value of fold change reported for the following: Nc1[nH]nc2nnc(-c3c(-c4ccccc4)nn4ccccc34)cc12
Given back: 1.01

Asked: Give the value of fold change reported for the following: CCCC[C@H](C)C[C@H](O)/C=C/[C@@H]1[C@@H](CCCCCCC(=O)O)[C@@H](O)C[C@H]1O
Given back: 0.931

Asked: Give the value of fold change reported for the following: CSc1cc2c(cc1C(F)(F)F)N(C(=O)Nc1cccnc1)CC2
Given back: 0.921

Asked: Give the value of fold change reported for the following: CCCCC[C@H](O)CC[C@@H]1[C@@H](CCCCCCC(=O)O)[C@@H](O)C[C@H]1O
Given back: 0.832

Asked: Give the value of fold change reported for the following: CS(=O)(=O)N1CCN(Cc2cc3nc(-c4cccc5[nH]ncc45)nc(N4CCOCC4)c3s2)CC1
Given back: 0.864

Asked: Give the value of fold change reported for the following: COc1ccc(CNC(=O)Nc2ncc([N+](=O)[O-])s2)cc1
Given back: 1.06

Asked: Give the value of fold change reported for the following: CCNC(=O)c1noc(-c2cc(C(C)C)c(O)cc2O)c1-c1ccc(CN2CCOCC2)cc1
Given back: 1.03

* * *

- Assay details: viability loss with induced miR-34 in A549 – imaging, A549 dox-inducible miR-34, nuclei and caspase counts, primary screen (AID 1347080)
- Experimental parameters: A549 miR-34 inducible, Hoechst nuclei count, 48 h; hits give low values; cell number ratio, induced over uninduced
Assign labels as follows, please: 1 for fold change below 1; 0 for fold change equal to or exceeding 1.

Before answering, review these 8 worked examples.
O=c1[nH]cnc2ccccc12 ... 1
CCCCc1nn(-c2ccccc2C(F)(F)F)c(=O)n1Cc1ccc(-c2ccccc2S(=O)(=O)NC(=O)c2sccc2C)cc1 ... 1
NS(=O)(=O)c1nn2cc(-c3ccccc3)nc2s1 ... 0
CC1(C)CCC(CN2CCN(c3ccc(C(=O)NS(=O)(=O)c4ccc(NCC5CCOCC5)c([N+](=O)[O-])c4)c(Oc4cnc5[nH]ccc5c4)c3)CC2)=C(c2ccc(Cl)cc2)C1 ... 0
CCCCC[C@@](C)(O)/C=C/[C@H]1[C@H](O)CC(=O)[C@@H]1C/C=C\CCCC(=O)O ... 0
CCCC[C@H](C)C[C@H](O)/C=C/[C@H]1[C@H](O)CC(=O)[C@@H]1CCCC/C=C/C(=O)O ... 1
CCN(CCO)CCCOc1ccc2c(Nc3cc(CC(=O)Nc4cccc(F)c4)[nH]n3)ncnc2c1 ... 1
CCCc1cc(C(=O)c2ccc(-c3ccccc3)cc2)ccc1OCCCN1CCCc2c(OC(C)(C)C(=O)O)cccc21 ... 1

Asked: Lab note: fold change threshold 1. Does this compound come in strictly under it? CCCCC/C=C\C/C=C\C/C=C\CCCCCCC(=O)OCC
Given back: 0

Asked: Lab note: fold change threshold 1. Does this compound come in strictly under it? Nc1ccc(-c2cccc3c(=O)cc(N4CCOCC4)oc23)cc1
Given back: 1

Asked: Lab note: fold change threshold 1. Does this compound come in strictly under it? COc1cccc(C=NC=Nc2cccc(OC)c2)c1
Given back: 1

Asked: Lab note: fold change threshold 1. Does this compound come in strictly under it? CCCCC/C=C\C=C\CCCCCCCCC(=O)O
Given back: 0

Asked: Lab note: fold change threshold 1. Does this compound come in strictly under it? COc1ccc(C[C@H](N)C(=O)N[C@H]2[C@@H](O)[C@H](n3cnc4c(N(C)C)ncnc43)O[C@@H]2O)cc1
Given back: 1

Asked: Lab note: fold change threshold 1. Does this compound come in strictly under it? Cc1ccccc1N=C(N)Nc1ccccc1C
Given back: 1

Asked: Lab note: fold change threshold 1. Does this compound come in strictly under it? CCS(=O)(=O)N(C)[C@H]1c2cc(C#N)ccc2OC(C)(C)[C@@H]1O (racemic)
Given back: 1

Asked: Lab note: fold change threshold 1. Does this compound come in strictly under it? Nc1nc(NCCc2ccc(O)cc2)nc2nc(-c3ccco3)nn12
Given back: 1

Asked: Lab note: fold change threshold 1. Does this compound come in strictly under it? Cc1c(C)c2c(c(C)c1O)CCC(C)(CCCC(C)C(=O)O)O2 (stereo unspecified)
Given back: 1

* * *

- Test system: Aerobactin synthetase IucA (Klebsiella pneumoniae)
- Assay details: inhibition of K. pneumoniae IucA enzyme – biochemical, Tocris library, absorbance (AID 1345561);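 note: 100% = enzyme without compound and 0% = no enzyme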
- Experimental parameters: purified IucA enzyme assay, absorbance (OD) read-out; hits give low values; concentration not given here
Parameter measured: remaining activity (%)
Unit % implied. Number only.

CCOC(=O)C12CC1/C(=N\O)c1ccccc1O2 (configuration not stated) ... 109
Cc1ccccc1N=C(N)Nc1ccccc1C ... 93.4
NCCCCCCCCCCNS(=O)(=O)c1cccc2c(Cl)cccc12 ... 98.7
Cn1cccc1/C=C1\C(=O)NC(=O)c2ccccc21 ... 129
Cn1cnnc1Sc1c([N+](=O)[O-])ncn1C ... 103

Asked: Give the value of remaining activity reported for the following: COc1cccc(C=NC=Nc2cccc(OC)c2)c1
Given back: 120

Asked: Give the value of remaining activity reported for the following: CC(C)Oc1ccc2c(=O)c3cc(C(=O)O)ccc3oc2c1
Given back: 93.9

Asked: Give the value of remaining activity reported for the following: CCCCN1CCC(CCC(=O)c2cc(Cl)c(N)cc2OC)CC1
Given back: 95.7

Asked: Give the value of remaining activity reported for the following: CC[C@@H]1Cn2c(c3nc(-c4ccccc4)nc-3n(C)c2=O)N1
Given back: 108

Origin of the recorded values: PubChem BioAssay
